# Lookup of reported Potency keyed by entry
# tested-target: Pyruvate kinase PKM (Homo sapiens)
# assay-overview: qHTS for Activators of Human Muscle Isoform 2 Pyruvate Kinase: Extended Characterization
# cond: purified PKM2, ATP production, Kinase-Glo luminescence
Calls of active or inactive are those of the source. Calls come from the whole dose curve; as a rule, active = well fitted curve in the direction sought with a large enough effect; inactive = no such curve, though single readings can be large or run the other way.

1) Cc1cc2c(s1)c1cnn(Cc3cc(F)c(F)cc3F)c(=O)c1n2C :: 1.12 µM (active)

In: Entry under review: `Cc1cc2c(s1)c1cnn(Cc3c(Cl)ccc(C)c3F)c(=O)c1n2C` . Reported Potency?
Out: 1.26 µM (active)

In: What does the data say about its Potency? Entry: `Cc1cc2c(s1)c1cnn(Cc3ccc(F)cc3F)c(=O)c1n2C`
Out: 0.891 µM (active)

In: Potency for `Cc1cc2c(s1)c1cnn(Cc3cc(F)ccc3F)c(=O)c1n2C` ?
Out: 1.12 µM (active)

Origin of values: PubChem BioAssay AID602384
